Tested on: MOLM14
Test: cell viability relative to vehicle control; higher = less cytotoxic;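 note: after 48 h exposure read by CellTiter-Glo luminescence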
Conditions: 10 µM; SRSF2 genotype: SRSF2 wt/wt
metric: cell viability (%)
Numbers only, in %.

Worked cases, answers included:
Input line: Fill in the blank: the reported cell viability of CC(=CCNc1ncnc2nc[nH]c12)CO [Trans-Zeatin] is ____.
Output line: 103

Input line: Find the recorded cell viability belonging to CCOC(=O)C=P(c1ccccc1)(c1ccccc1)c1ccccc1 [Ethyl (triphenylphosphoranylidene) acetate] and report it.
Output line: 93

Input line: For the compound shown here, CCCCNc1ncc2c(-c3ccc(CN4CCN(C)CC4)cc3)cn([C@H]3CC[C@H](O)CC3)c2n1 , give the reported cell viability.
Output line: 0.23

Shift focus to the following entry.
Input line: For the compound CC(C)(CO)n1cc(C(=O)c2cncc(NC(=O)Cc3ccc(Cl)cn3)c2)c2cnc(N)nc21 , what cell viability is on record?
Output line: 76.5

====

Could you please report measured cell viability for the items listed next?
Tested on: MARIMO
Assay: cell viability relative to vehicle control; higher = less cytotoxic
Settings: 10 µM; SRSF2 genotype: SRSF2 wt/wt
Please answer using a numeric value trailed by its unit.

Input line: Entry CC(C)(O[C@@H]1O[C@H](CO)[C@@H](O)[C@H](O)[C@H]1O)[C@H]1Cc2cc3ccc(=O)oc3cc2O1 [Nodakenin] : reported cell viability = ?
Output line: 101%

Input line: I have this compound here, C=C1[C@H](O)C[C@H]2[C@@H](/C=C(\C)C(=O)[C@@]3(O)C[C@H](C)[C@H](O)[C@@H]3[C@H]1O)C2(C)C , and I need its recorded cell viability.
Output line: 100%

Input line: Reported cell viability for Cc1cnc(NC(=O)Nc2cc(Br)c(C)cc2OC[C@@H]2CNCCO2)cn1 : what is it?
Output line: 8.01%

List cell viability for every entry below, keeping the order given.
1. CC(C)OC(=O)CCC/C=C\C[C@@H]1[C@@H](/C=C/C(F)(F)COc2ccccc2)[C@H](O)C[C@@H]1O [Tafluprost]
2. COc1c(O)cc2c(c1O)[C@@H]1O[C@H](CO)[C@@H](O)[C@H](O)[C@H]1OC2=O [Bergenin (Cuscutin)]
3. O=c1c(-c2ccc(O)cc2)coc2c([C@@H]3O[C@H](CO)[C@@H](O)[C@H](O)[C@H]3O)c(O)ccc12 [Puerarin (Kakonein)]
4. CC1=CCC(C(C)(C)O)CC1 (stereo not drawn)
5. CN(C(=O)CNC(=O)/C=C/c1cccc(Cl)c1)C1CCS(=O)(=O)CC1

Output line:
1. 96.2%
2. 99%
3. 101%
4. 105%
5. 104%

Give measured cell viability for every item shown.
1. C=CC[C@@H]1/C=C(\C)C[C@H](C)C[C@H](OC)[C@H]2O[C@@](O)(C(=O)C(=O)N3CCCC[C@H]3C(=O)O[C@H](/C(C)=C/[C@@H]3CC[C@@H](O)[C@H](OC)C3)[C@H](C)[C@@H](O)CC1=O)[C@H](C)C[C@@H]2OC [Tacrolimus (FK506)]
2. NC(N)=Nc1nc(CSCC/C(N)=N/S(N)(=O)=O)cs1 [Famotidine (Pepcid)]
3. C=CCS[S+]([O-])CC=C (stereo not drawn) [Allicin]
4. CC1(C)CC[C@]2(C(=O)O)CC[C@]3(C)C(=CC[C@@H]4[C@@]5(C)CC[C@H](O[C@@H]6O[C@H](C(=O)O)[C@@H](O)[C@H](O[C@@H]7OC[C@@H](O)[C@H](O)[C@H]7O)[C@H]6O)C(C)(C)[C@@H]5CC[C@]43C)[C@@H]2C1 [Momordin Ic]
5. COc1ccc2c(Oc3ccc(NC(=O)c4c(C)n(CC(C)(C)O)n(-c5ccccc5)c4=O)nc3)ccnc2c1

Output line:
1. 97.2%
2. 106%
3. 84.9%
4. 108%
5. 97.3%

Provide reported cell viability for each item, in the same order as listed.
1. CO[C@@H]1[C@@H](OC)[C@H](C)[C@@](O)(CC(=O)O)O[C@H]1[C@H](C)[C@H]1O[C@@]2(CC[C@@](C)([C@H]3CC[C@@](C)([C@@H]4O[C@@H]([C@H]5O[C@](C)(O)[C@H](C)C[C@@H]5C)C[C@@H]4O[C@@H]4C[C@H](OC)[C@@H](OC)[C@H](C)O4)O3)O2)C[C@H](O)[C@H]1C [Maduramycin Ammonium]
2. C[C@H]1O[C@@H](O[C@H]2CC[C@@]3(C)[C@@H](CC[C@]4(C)[C@@H]3C=CC3=C5CC(C)(C)CC[C@]5(CO)[C@@H](O)C[C@]34C)[C@]2(C)CO)[C@H](O[C@@H]2O[C@H](CO)[C@@H](O)[C@H](O)[C@H]2O)[C@@H](O[C@@H]2O[C@H](CO)[C@@H](O)[C@H](O)[C@H]2O)[C@H]1O [Buddlejasaponin IVb]
3. C[C@@H]1CC[C@@]2(OC1)O[C@H]1C[C@H]3[C@@H]4CC=C5C[C@@H](O[C@@H]6O[C@H](CO)[C@@H](O[C@@H]7O[C@@H](C)[C@H](O[C@@H]8O[C@@H](C)[C@H](O)[C@@H](O)[C@H]8O)[C@@H](O)[C@H]7O)[C@H](O)[C@H]6O[C@@H]6O[C@@H](C)[C@H](O)[C@@H](O)[C@H]6O)CC[C@]5(C)[C@H]4CC[C@]3(C)[C@@]1(O)[C@@H]2C [Chonglou Saponin VII]
4. Cc1nnc(NS(=O)(=O)c2ccc(N)cc2)s1 [Sulfamethizole (Proklar)]
5. C=CC(=O)Nc1cccc(Oc2nc(Nc3ccc(N4CCN(C)CC4)cc3)ncc2Cl)c1

Output line:
1. 17.7%
2. 108%
3. 0.55%
4. 106%
5. 18.8%

Taken from the supplement of paper PMC10981050.
